test: Nrf2 qHTS screen for inhibitors; also: nearly all actives have a fitted effect of over 60% in size; also: potency is read from the fitted curve at half-maximal effect
assay conditions: A549 ARE-Fluc reporter, luciferase luminescence, 18-24 h; series mostly up to 46 µM
Out of some 360,000 compounds screened, about 7,500 (2.1%) were called active. Roughly 20% stayed inconclusive and do not appear here. The sample as a whole holds a higher share of actives than the screen did.

{"compound": "O=C(NCC12CC3CC(CC(C3)C1)C2)c1cc2nc(-c3ccccc3)cc(C(F)(F)F)n2n1", "Potency": "inactive"}
{"compound": "COc1cccc(CNC(=O)CCC(=O)N2CC3CCCN3c3ccccc32)c1 (stereo unspecified)", "Potency": "inactive"}
{"compound": "O=C1OC(Oc2ccc(Br)cc2)(c2ccccc2)c2ccccc21 (stereo unspecified)", "Potency": "inactive"}
{"compound": "Cc1cccc(N2CCN(c3ccc(NC(=O)/C=C\\C(=O)O)cc3)CC2)c1", "Potency": "inactive"}
{"compound": "Cc1cccc(-n2ncc(C(=O)N3CCC(C)CC3)c2C2CCN(C(=O)OC(C)(C)C)CC2)c1", "Potency": "inactive"}
{"compound": "COc1ccc(S(=O)(=O)N(C)C[C@@H]2Oc3ccc(NC(=O)Nc4c(C)noc4C)cc3C(=O)N([C@H](C)CO)C[C@@H]2C)cc1", "Potency": "inactive"}
{"compound": "Cc1ccc2onc(CC(=O)N3CCN(c4ccc(Cl)cc4)CC3)c2c1", "Potency": "inactive"}
{"compound": "COc1cccc(C2c3c(ncn(-c4cccc(Br)c4)c3=N)Oc3ccc4ccccc4c32)c1 (stereo unspecified)", "Potency": "inactive"}
{"compound": "CCS(=O)(=O)c1ccc2oc(SCC(=O)N3c4ccccc4CC3C)nc2c1 (stereo unspecified)", "Potency": "inactive"}
{"compound": "C=CCSc1nc2ccccc2[nH]1", "Potency": "inactive"}
{"compound": "C=CCNC(=O)c1cc2nc(C3CC3)cc(C(F)F)n2n1", "Potency": "inactive"}
{"compound": "CCC(C)N1C(=O)S/C(=C/c2ccc(Sc3nc4ccccc4[nH]3)o2)C1=O (stereo unspecified)", "Potency": "0.731 µM (active)"}
{"compound": "COc1ccc(NS(=O)(=O)c2ccc(O)c(C(=O)OCC(=O)NC3CCCCC3)c2)cc1", "Potency": "inactive"}
{"compound": "Cc1ccc(-c2nc(CS(=O)(=O)CC(=O)NCc3ccccc3Cl)c(C)o2)cc1", "Potency": "inactive"}
{"compound": "CC1CCN(C(=O)c2cc3nc(C4CC4)cc(C(F)(F)F)n3n2)CC1", "Potency": "18.4 µM (active)"}
{"compound": "C=CC(=O)Nc1ccc(Nc2ccnc(Nc3ccc(N4CCN(C)CC4)cc3)n2)cc1", "Potency": "14.6 µM (active)"}

* * *

test: Nrf2 qHTS screen for inhibitors; also: nearly all actives have a fitted effect of over 60% in size
assay conditions: A549 ARE-Fluc reporter, luciferase luminescence, 18-24 h; series mostly up to 46 µM
About 7,500 (2.1%) of roughly 360,000 compounds were called active. Not shown: some 20% with an inconclusive outcome. Calls come from the whole dose curve; as a rule, active = well fitted inhibition curve with a large enough effect; inconclusive = small, poorly fitted or top-dose-only effect, or effect the other way; inactive = flat fitted curve, though single readings scatter. The list comes from a sample in which actives are over-represented; it also holds close analogues and randomly drawn compounds.
Labels: YES for active, NO for inactive

{"compound": "Cc1ccc(NC(=O)c2cccc(S(=O)(=O)N3CCCc4ccccc43)c2)nc1", "category": "YES"}
{"compound": "COc1ccc(NS(=O)(=O)c2cc(C(=O)Nc3ccccc3C(=O)O)ccc2C)cc1", "category": "NO"}
{"compound": "N#Cc1nc(Cc2cccc3ccccc23)oc1NCc1ccc2c(c1)OCO2", "category": "NO"}
{"compound": "O=C(Nc1ccc(Cl)cc1)c1cccc(OC(=S)N2CCOCC2)c1", "category": "YES"}
{"compound": "COc1ccc(CCNC(=O)c2ccc(-n3c(C)cc4c3CCCC4)cc2)cc1OC", "category": "NO"}
{"compound": "CCn1c2ccccc2c2cc(CN3CCN(Cc4cccc(Cl)c4)CC3)ccc21", "category": "NO"}
{"compound": "COc1ccc(C(=O)C[n+]2ccc(C)cc2)cc1", "category": "NO"}
{"compound": "COc1ccc(C(CNC(=O)c2ccc(S(=O)(=O)Nc3ccccc3C)cc2)N2CCOCC2)cc1 (stereo not drawn)", "category": "NO"}
{"compound": "Cc1cc2c(cc1C)C(c1cccc(OC(C)C)c1)CC(=O)N2 (stereo not drawn)", "category": "YES"}
{"compound": "CCOc1ccc(NC(=O)CN2CCN(CC(=O)Nc3ccc(OC)cc3)CC2)cc1", "category": "NO"}
{"compound": "O=C(CCS(=O)(=O)c1ccc2c(c1)NC(=O)CO2)Nc1cccc(C(F)(F)F)c1", "category": "NO"}
{"compound": "COc1cc2c(cc1OC)C(c1ccncc1)CC(=O)N2 (stereo not drawn)", "category": "NO"}
{"compound": "COc1ccc(NC(=O)CSC2=Nc3ccccc3C3=NC(CC(=O)NCc4ccccc4OC)C(=O)N23)cc1Cl (stereo not drawn)", "category": "NO"}

* * *

test: Nrf2 qHTS screen for inhibitors; also: nearly all actives have a fitted effect of over 60% in size
assay conditions: A549 ARE-Fluc reporter, luciferase luminescence, 18-24 h; series mostly up to 46 µM
Screen size: about 360,000 compounds; about 7,500 (2.1%) were called active. Inconclusive results (about 20%) are left out. The call rests on the fitted dose curve; in most records, active means well fitted inhibition curve with a large enough effect; inconclusive means small, poorly fitted or top-dose-only effect, or effect the other way; inactive means flat fitted curve, though single readings scatter. The list comes from a sample in which actives are over-represented; it also holds close analogues and randomly drawn compounds.
Outcome codes: active, inactive

{"compound": "Cc1cccc(C(=O)OCC(=O)NC(C)C2CC3CCC2C3)c1O (stereo unspecified)", "category": "inactive"}
{"compound": "O=C(Nc1ccc(S(=O)(=O)N2CCC(c3nc4ccccc4s3)CC2)cc1)c1ccccc1F", "category": "inactive"}
{"compound": "COc1ccc(C(=O)OCC(=O)c2ccc(C)c(S(=O)(=O)N3CCOCC3)c2)cc1OC", "category": "active"}
{"compound": "CC(C)(C)c1ccc(S(=O)(=O)Nc2ccc(O)c(Sc3nc4ccccc4s3)c2)cc1", "category": "inactive"}
{"compound": "COc1ccc(CC(=O)Nc2ccc3c(c2)CCC3)cc1S(=O)(=O)N1CCOCC1", "category": "inactive"}
{"compound": "C(=N\\N1CCN(c2ccccn2)CC1)/C1=C(N2CCOCC2)C(=C/c2ccccc2)/CC1", "category": "inactive"}
{"compound": "CC[C@]12c3[nH]c4ccc(Cl)cc4c3CCN1C(=O)[C@@H](CC(=O)NCCCOC)C[C@@H]2C(=O)N1CCN(C(=O)c2ccco2)CC1", "category": "inactive"}
{"compound": "Cn1ccc(NC(=O)Nc2ccc(Cl)cc2)n1", "category": "inactive"}
{"compound": "O=C(c1ccc2c(c1)N(Cc1ccccc1)C(=O)c1ccccc1S2(=O)=O)N1CCCC1", "category": "inactive"}
{"compound": "CC(C)S(=O)(=O)c1csc(NC(=O)Nc2ccc(Cl)cc2)c1Cl", "category": "active"}
{"compound": "COCCNC(=O)Cn1cc(C(=O)c2cccs2)c2ccccc21", "category": "inactive"}
{"compound": "COc1cc(/C=C/C(=O)OCC(=O)N2CCOCC2)ccc1OCC#N", "category": "inactive"}
{"compound": "COc1cc(/C=C/C(=O)Nc2ccc(OC)c(S(=O)(=O)N3CCOCC3)c2)ccc1OCC#N", "category": "active"}
{"compound": "Cn1c(Cc2cccc3ccccc23)nnc1SCC(=O)N1CCN(c2cccc(Cl)c2)CC1", "category": "active"}
{"compound": "Cc1ccc(C)c(N2CCN(C(=O)Cn3ncc4c(=O)oc5ccc(C)cc5c43)CC2)c1", "category": "inactive"}
{"compound": "O=C(N/N=C/c1cccc([N+](=O)[O-])c1)c1ccncc1", "category": "inactive"}
{"compound": "COc1ccc(CCC(=O)Nc2ccc(Cl)c(S(=O)(=O)N3CCOCC3)c2)cc1OC", "category": "active"}
{"compound": "Oc1ccc(Cl)cc1C1C=C(c2ccc3c(c2)OCO3)NC(c2c(F)cccc2Cl)N1 (stereo unspecified)", "category": "inactive"}
{"compound": "COc1ccc(C)cc1NC(=O)COCc1cc(-c2cccs2)on1", "category": "inactive"}
{"compound": "Cc1c(Cl)cccc1NC(=O)Cn1cc(C(=O)c2cccs2)c2ccccc21", "category": "active"}
{"compound": "COC(=O)Cn1cc(C(=O)c2cccs2)c2ccccc21", "category": "inactive"}
{"compound": "COc1ccc(CNC(=O)COC(=O)c2ccc(C)c(S(=O)(=O)N3CCOCC3)c2)cc1OC", "category": "inactive"}
{"compound": "Cc1ccccc1-n1c(SCC(=O)NCc2cccs2)nnc1-c1ccncc1", "category": "inactive"}
{"compound": "COc1ccc(CNCCCn2cnc3c(OCc4ccccc4)ncnc32)cc1", "category": "inactive"}
{"compound": "CC(C)(C)OC(=O)N1CCC(C(=O)Nc2cccc(C(=O)NCCc3ccccc3)c2)CC1", "category": "inactive"}
{"compound": "CN(C)c1ccc(C(=O)NCC(=O)OC(C(=O)Nc2cc(C(F)(F)F)ccc2Cl)c2ccccc2)cc1 (stereo unspecified)", "category": "inactive"}
